Ref: the MegaScale stability set (Tsuboyama et al. 2023)

Provide the reported folding stability dG of each item.
B1: 1ZHC (parent)
chain: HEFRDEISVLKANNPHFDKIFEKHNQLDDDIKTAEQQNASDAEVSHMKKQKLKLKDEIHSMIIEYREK

Variants of: B1
Test: folding stability dG (cDNA display proteolysis); higher = more stable
Settings: PBS, room temperature
Respond with the bare value in kcal/mol.

What the record says about `D56G` : folding stability dG is 0.971

What the record says about `S45D` : folding stability dG is 0.937

What the record says about `L52K` : folding stability dG is 0.948
